# TESTED_ON: T1, FinO (F-like plasmid (Escherichia coli), UniProt P29367 1-186)
# T1 sequence: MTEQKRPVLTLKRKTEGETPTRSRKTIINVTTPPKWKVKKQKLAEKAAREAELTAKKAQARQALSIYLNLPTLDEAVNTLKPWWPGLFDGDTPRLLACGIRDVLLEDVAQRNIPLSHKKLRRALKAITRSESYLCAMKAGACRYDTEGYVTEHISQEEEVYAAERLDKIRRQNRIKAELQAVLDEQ
# TEST_DESCRIPTION: EMSA; 25 mM Tris-HCl pH 7.5, 150 mM NaCl, 5% glycerol, 1 mM MgCl2, 1 nM 32P-RNA, 30 min at room temperature; native 6% PAGE in 0.5x TBE at 4 C
# MEASUREMENT_CONDITIONS: protein: recombinant; tags: His6-TEV site (ENLYFQ/S) N-terminal in the expression construct; label: 32P; terminator hairpin; A-G then C-A mismatch below; GAU4 tail
PROPERTY_NAME: pKd
Entry type: numeric. Quantity: pKd, the -log10 of concentration in molar units.

## Input # query: pKd of entry FinP (structured_RNA) RNA: GGAUACAUAGGAACCUCCUCACAAAGGAUUCUAUGGACAGUCGAUGCAGGGAGUUCACGUCUCCCUGCAUCGGCGAUUUU
## Output 6.96

The origin of these recorded values is paper PMC12001967.
